Consider the following compounds; for each one, report its pIC50.
# TGT: Cytochrome P450 26A1 (Homo sapiens, UniProt O43174)
# Sequence (O43174 whole entry): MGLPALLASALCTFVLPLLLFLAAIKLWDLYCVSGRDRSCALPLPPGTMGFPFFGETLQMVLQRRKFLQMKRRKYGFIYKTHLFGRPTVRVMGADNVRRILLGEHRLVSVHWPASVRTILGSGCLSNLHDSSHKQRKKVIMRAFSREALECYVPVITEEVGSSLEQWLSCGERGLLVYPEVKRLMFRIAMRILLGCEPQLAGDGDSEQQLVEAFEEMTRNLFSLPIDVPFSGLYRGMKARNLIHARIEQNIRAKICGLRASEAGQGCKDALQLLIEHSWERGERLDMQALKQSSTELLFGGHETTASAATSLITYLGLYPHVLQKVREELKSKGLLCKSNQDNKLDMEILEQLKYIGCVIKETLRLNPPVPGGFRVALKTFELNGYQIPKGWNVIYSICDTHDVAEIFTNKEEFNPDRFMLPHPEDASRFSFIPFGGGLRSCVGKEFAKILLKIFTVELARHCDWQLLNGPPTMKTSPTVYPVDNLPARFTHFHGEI
# METHOD_NOTES: Inhibition of ATRA-induced CYP26 in human MCF7 cells assessed ATRA as metabolism using [11.12-3H]-ATRA
# Type: functional, cell-based
Numbers only, as −log10 of the molar value.

>>> print(df.to_string())
                                   compound  recorded_value
0  CC1=C(/C=C/C(C)=C/C=C/C(C)=C/C(=O)Nc2ccc(O)cc2)C(C)(C)CCC1n1ccnc1 (racemic)            7.25

# map each compound to its pIC50
1. CC1=C(/C=C/C(C)=C/C=C/C(C)=C/C(=O)n2ccnc2)C(C)(C)CCC1n1ccnc1 (racemic)
2. COC(=O)/C=C(C)/C=C/C=C(C)/C=C/C1=C(C)C(n2ccnc2)CCC1(C)C (racemic)
3. CC1=C(/C=C/C(C)=C/C=C/C(C)=C/C(=O)O)C(C)(C)CCC1n1ccnc1 (racemic)

1. 7.61
2. 6.70
3. 7.96

* * *

Consider the following compounds; for each one, report its IC50.
# METHOD_NOTES: Inhibition of ATRA hydroxylase in Syrian golden hamster liver microsome assessed ATRA metabolism using [11.12-3H]-ATRA
# Assay type: microsomes, Mesocricetus auratus
One number for each entry, in nM.

For orientation, consider the following solved cases.
                                   compound  value_unit  recorded_value
0  COC(=O)/C=C(C)/C=C/C=C(C)/C=C/C1=C(C)C(n2ccnc2)CCC1(C)C (racemic)          nM           0.009
1  CC1=C(/C=C/C(C)=C/C=C/C(C)=C/C(=O)O)C(C)(C)CCC1n1cncn1 (racemic)          nM            5.84
2  CC1=C(/C=C/C(C)=C/C=C/C(C)=C/C(=O)Nc2ccc(O)cc2)C(C)(C)CCC1 [FENRETINIDE]          nM           31800
3  CC1=C(/C=C/C(C)=C/C=C/C(C)=C/C(=O)n2ccnc2)C(C)(C)CCC1          nM            61.2

# map each compound to its IC50
1. Clc1cccc(C(c2ccc3[nH]cnc3c2)n2ccnc2)c1 (configuration not stated)
2. COC(=O)/C=C(C)/C=C/C=C(C)/C=C/C1=C(C)C(=N/O)/CCC1(C)C
3. CC1=C(/C=C/C(C)=C/C=C/C(C)=C/C(=O)O)C(C)(C)CCC1n1cnnc1 (racemic)
4. CC1=C(/C=C/C(C)=C/C=C/C(C)=C/C(=O)n2ccnc2)C(C)(C)CCC1n1ccnc1 (racemic)

[6000, 23, 46.7, 0.05]

# map each compound to its IC50
1. CC1=C(/C=C/C(C)=C/C=C/C(C)=C\C(=O)n2ccnc2)C(C)(C)CCC1n1ccnc1 (racemic)
2. COC(=O)/C=C(C)/C=C/C=C(C)/C=C/C1=C(C)C(n2cnnc2)CCC1(C)C (racemic)
3. CC(=O)N1CCN(c2ccc(OCC3COC(Cn4ccnc4)(c4ccc(Cl)cc4Cl)O3)cc2)CC1 (configuration not stated)
4. CC1=C(/C=C/C(C)=C/C=C/C(C)=C/C(=O)Nc2ccc(O)cc2)C(C)(C)CCC1n1ccnc1 (racemic)
5. CC1=C(/C=C/C(C)=C/C=C/C(C)=C/C(=O)n2cncn2)C(C)(C)CCC1

[57.5, 21.7, 34000, 43.7, 51.7]

# map each compound to its IC50
1. COC(=O)/C=C(C)/C=C/C=C(C)/C=C/C1=C(C)C(n2cncn2)CCC1(C)C (racemic)
2. CC1=C(/C=C/C(C)=C/C=C/C(C)=C\C(=O)Nc2ccc(O)cc2)C(C)(C)CCC1n1ccnc1 (racemic)
3. CC1=C(/C=C/C(C)=C/C=C/C(C)=C/C(=O)O)C(C)(C)CCC1n1ccnc1 (racemic)
4. CC1=C(/C=C/C(C)=C/C=C/C(C)=C\C(=O)O)C(C)(C)CCC1n1ccnc1 (racemic)

1. 2
2. 76.7
3. 2.33
4. 119
